Attribution: patent US6124269A

System: Streptococcus pneumoniae 5979
TEST NAME: In vitro agar dilution MIC, organism code ZZ
Assay type: cell-based
RUN PARAMETERS: Table 1B, unit assumed
READOUT TYPE: MIC (µg/mL)

{"columns": ["MOLECULE", "RECORDED VALUE"],
 "data": [
  ["CC[C@H]1OC(=O)[C@@](C)(F)C(=O)[C@H](C)[C@@H](O[C@@H]2O[C@H](C)C[C@H](N(C)C)[C@H]2O)[C@](C)(OC/C=C/c2cnc3ncccc3c2)C[C@@H](C)C(=O)[C@H](C)[C@H]2NC(=O)O[C@@]21C [Example 11]", 0.125],
  ["CC[C@H]1OC(=O)[C@@](C)(F)C(=O)[C@H](C)[C@@H](O[C@@H]2O[C@H](C)C[C@H](N(C)C)[C@H]2O)[C@](C)(OC/C=C/c2ccc3ncccc3c2)C[C@@H](C)C(=O)[C@H](C)[C@H]2NC(=O)O[C@@]21C [Example 10]", 0.25]
]}
